These data points were gathered from patent US20210284621A1.

Molecular target: CB1 receptor (Homo sapiens)
Sequence (P21554 whole entry): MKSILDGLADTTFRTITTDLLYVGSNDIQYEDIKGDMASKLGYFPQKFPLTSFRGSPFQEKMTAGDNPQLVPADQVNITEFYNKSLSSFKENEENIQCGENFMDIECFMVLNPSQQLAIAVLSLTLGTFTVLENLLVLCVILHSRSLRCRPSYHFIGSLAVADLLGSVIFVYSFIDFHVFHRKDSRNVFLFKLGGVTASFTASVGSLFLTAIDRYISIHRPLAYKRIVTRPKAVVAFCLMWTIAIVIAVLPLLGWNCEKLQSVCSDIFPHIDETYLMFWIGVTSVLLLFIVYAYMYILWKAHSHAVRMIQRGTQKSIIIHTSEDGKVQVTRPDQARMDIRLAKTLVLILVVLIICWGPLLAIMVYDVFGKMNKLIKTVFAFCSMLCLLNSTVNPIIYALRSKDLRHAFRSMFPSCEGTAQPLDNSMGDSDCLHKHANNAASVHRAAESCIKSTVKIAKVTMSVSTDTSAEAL
Assay: CB1 competitive radioligand binding assay ([3H] SR141716A)
Parameters: expressed in transfected cells; host or cells: Chem-1 cells
Conditions: 0.5 μM compound, 2.0 nM [3H] SR141716A, 90 min 37° C.
Experimental: J Med Chem. 41(26): 5177-5187 (1998); and Munro S., et al. Molecular characterization of a peripheral receptor for cannabinoids. Nature 365:61-65 (1993). CB1 Radioligand Binding Assay: A compound of the invention (0.5 μM in 1% DMSO) was incubated with Chem-1 cells expressing human recombinant CB1 receptor in buffer (50 mM HEPES, pH 7.4, 5 mM MgCl2, 1 mM CaCl2, 0.2% BSA) for 90 minutes at 37° C. in the presence of 2.0 nM [H^3] […]
readout.label: inhibition at 0.5 µM
Write the numeric value and follow it with the unit.

Which measured inhibition at 0.5 µM value corresponds to CCCCCCC(C)(C)c1cc(O)c2c(c1)OC(C)(C)[C@@H]1CC=C(C(N)=O)C[C@@H]21 ?
70%

Entry CCCCCCC(C)(C)c1cc(OC)c2c(c1)OC(C)(C)[C@@H]1CC=C(C(=O)NCCO)C[C@@H]21 please
21%

CCCCCCC(C)(C)c1cc(O)c2c(c1)OC(C)(C)[C@@H]1CC=C(C(=O)NCC(O)CO)C[C@@H]21 (stereo partly shown) , same question.
44%

CCCCCCC(C)(C)c1cc(O)c2c(c1)OC(C)(C)[C@@H]1CC=C(C(=O)NCCCO)C[C@@H]21 , same question.
49%

Field entry: CCCCCCC(C)(C)c1cc(O)c2c(c1)OC(C)(C)[C@@H]1CC=C(C(=O)OCC(O)CO)C[C@@H]21 (stereo partly shown)
107%

Try CCCCCCC(C)(C)c1cc(O)c2c(c1)OC(C)(C)[C@@H]1CC=C(C(=O)NC(C)(C)CC(=O)O)C[C@@H]21 next.
9%

Please do the same for CCCCCCC(C)(C)c1cc(O)c2c(c1)OC(C)(C)[C@@H]1CC=C(C(=O)N[C@H](C)C(=O)O)C[C@@H]21 as well.
9%
